Values were extracted from ChEMBL document CHEMBL1138937.

- Species: Homo sapiens
- Run Description: Selectivity for S1P1 receptor over S1P3 receptor
Measured Metric: Selectivity ratio

Cc1cc(CCC(=O)O)ccc1-c1noc(-c2ccc(OCC(F)(F)F)c(C#N)c2)n1
16000
Cc1cc(CCC(=O)O)ccc1-c1noc(-c2ccc(OC(C)C)c(Cl)c2)n1
7500
Cc1cc(CCC(=O)O)ccc1-c1noc(-c2ccc(OC(C)C)nc2)n1
1400

[I] Cc1cc(CCC(=O)O)ccc1-c1noc(-c2ccc(OC(C)C)c(C(F)(F)F)c2)n1
[II] O=C(O)C1CN(Cc2ccc(OCc3cc(-c4ccccc4)c(C(F)(F)F)s3)cc2)C1
Prompt line: Field: lower Selectivity ratio | Options: I / II To answer, give the label that identifies your chosen option.
Response line: II
(II: 440, I: 1200)

---

- Run Description: Half life in Sprague-Dawley rat at 1 mg/kg, iv and 2 mg/kg, po
- Format: ADME, organism-based
- Study Conditions: in vivo
Measured Metric: half-life (min)

Cc1cc(CCC(=O)O)ccc1-c1noc(-c2ccc(OC(C)C)c(Cl)c2)n1
48
Cc1cc(CCC(=O)O)ccc1-c1noc(-c2ccc(OCC(F)(F)F)c(C#N)c2)n1
36
Cc1cc(CCC(=O)O)ccc1-c1noc(-c2ccc(OC(C)C)c(C(F)(F)F)c2)n1
66

[P] Cc1cc(CCC(=O)O)ccc1-c1noc(-c2cnc(OC(C)C)c(Cl)c2)n1
[Q] Cc1cc(CCC(=O)O)ccc1-c1noc(-c2ccc(OC(C)C)c(C#N)c2)n1
Prompt line: Which is greater in half-life, the first item P or the second item Q ? Reply with the label of the item you choose.
Response line: P

---

- System: UniProt:O95977
- Run Description: Activity at S1P4 receptor expressed in CHO cells measured as S1P-induced [35S]GTP-gamma-S uptake
pEC50: −log10 of the molar value.
Here the recorded pEC50 is given for each entry.

Prompt line: Fill in the blank: the reported pEC50 of Cc1cc(CCC(=O)O)ccc1-c1noc(-c2ccc(CC(C)C)nc2)n1 is ____.
Response line: < 5.00

---

- System: Sphingosine 1-phosphate receptor 5 (Homo sapiens, UniProt Q9H228)
- Sequence (Q9H228 whole entry): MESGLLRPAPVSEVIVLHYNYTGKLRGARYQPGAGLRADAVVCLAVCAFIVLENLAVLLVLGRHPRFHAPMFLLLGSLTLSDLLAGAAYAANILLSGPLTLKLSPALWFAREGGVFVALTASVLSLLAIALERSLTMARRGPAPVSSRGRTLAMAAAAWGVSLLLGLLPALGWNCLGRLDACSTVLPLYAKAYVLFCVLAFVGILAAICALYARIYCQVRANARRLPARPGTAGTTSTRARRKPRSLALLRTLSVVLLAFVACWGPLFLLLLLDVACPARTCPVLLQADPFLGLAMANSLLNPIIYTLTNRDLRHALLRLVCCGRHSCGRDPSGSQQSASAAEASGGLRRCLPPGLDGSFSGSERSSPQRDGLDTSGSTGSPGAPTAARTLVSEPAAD
- Run Description: Agonist activity at S1P5 receptor expressed in CHO cells measured as S1P-induced [35S]GTP-gamma-S uptake
pEC50: −log10 of the molar value.
Measured Metric: pEC50

Known results for compounds:
Cc1cc(CCC(=O)O)ccc1-c1noc(-c2ccc(OCC(F)(F)F)c(C#N)c2)n1
7.36
Cc1cc(CCC(=O)O)ccc1-c1noc(-c2ccc(OC(C)C)c(C#N)c2)n1
8.19
Cc1cc(CCC(=O)O)ccc1-c1noc(-c2ccc(OC(C)C)c(Br)c2)n1
7.37
Cc1cc(CC(=O)O)ccc1-c1noc(-c2ccc(C3CCCCC3)cc2)n1
5.40

[P] Cc1cc(-c2nc(-c3ccc(CCC(=O)O)cc3C)no2)ccc1OC(C)C
[Q] CC[C@H](C)Oc1ccc(-c2nc(-c3ccc(CCC(=O)O)cc3C)no2)cc1C#N
Prompt line: Hi, I'm comparing P with Q and wondering which one has the bigger number for pEC50. Any idea? Choose, then provide that item's label.
Response line: Q

---

- System: Sphingosine 1-phosphate receptor 4 (Homo sapiens, UniProt O95977)
- Sequence (O95977 whole entry): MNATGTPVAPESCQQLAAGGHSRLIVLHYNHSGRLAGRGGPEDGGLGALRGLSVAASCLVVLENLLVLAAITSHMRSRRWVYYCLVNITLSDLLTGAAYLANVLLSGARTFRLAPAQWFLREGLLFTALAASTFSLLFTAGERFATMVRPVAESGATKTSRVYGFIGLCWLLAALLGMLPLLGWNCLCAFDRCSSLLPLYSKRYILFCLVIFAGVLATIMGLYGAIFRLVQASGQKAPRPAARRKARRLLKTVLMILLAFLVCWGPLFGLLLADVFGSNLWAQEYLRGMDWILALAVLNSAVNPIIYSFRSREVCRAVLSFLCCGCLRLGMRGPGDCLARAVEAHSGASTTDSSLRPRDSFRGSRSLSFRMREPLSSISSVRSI
- Run Description: Activity at S1P4 receptor expressed in CHO cells measured as S1P-induced [35S]GTP-gamma-S uptake
Each record here notes measured EC50.

Cc1cc(CCC(=O)O)ccc1-c1noc(-c2ccc(OC(C)C)c(C(F)(F)F)c2)n1
> 10 µM
Cc1cc(-c2nc(-c3ccc(CCC(=O)O)cc3C)no2)ccc1OC(C)C
> 10 µM
Cc1cc(CC(=O)O)ccc1-c1noc(-c2ccc(C3CCCCC3)cc2)n1
> 10 µM
Cc1cc(CCC(=O)O)ccc1-c1noc(-c2ccc(OC(C)C)c(C#N)c2)n1
> 10 µM

Here is another compound to look at.
Prompt line: Data request, read-out EC50, for Cc1cc(CCC(=O)O)ccc1-c1noc(-c2ccc(OC(C)C)c(Cl)c2)n1
Response line: > 10 µM
